Test system: HCC-2998 colon
Test: NCI tumour cell line growth inhibition, 48 h
readout.kind: TGI

Examples with their reported TGI follow.
CCOC(=O)C1C(c2ccco2)C2(C#N)C(=N)OC1(C)C2(C#N)C#N (stereo unspecified) = > 100 µM
COc1ccc(-c2cnc(SCC(=O)c3c(C)n(C)n(-c4ccccc4)c3=O)n2-c2ccc(OC)cc2)cc1 = > 50 µM
O=c1oc2cc(O)ccc2c(O)c1C(c1ccc2ccccc2c1)c1c(O)c2ccc(O)cc2oc1=O = > 100 µM
N=C(N)c1ccc(CS(=O)(=O)F)cc1 = > 100 µM
NCc1ccc(O)c(O)c1O = > 81.7 µM
Cc1ccc2oc(=O)cc(CC(=O)O)c2c1 = > 100 µM

Continue with the next molecule.
GET /values?readout=TGI&item= `N=C(N)SC(c1ccccc1)c1ccccc1`
20.1 µM

* * *

Test system: SF-295 CNS
Test: NCI tumour cell line growth inhibition, 48 h; in the data active = GI50 below about 0.43 µM; inactive = the rest
Form entry, call: pick from YES (active), NO (inactive)

Use these answered entries as a reference point.
Cc1ccccc1NC(=O)N/C(N)=N/c1nc(C)c(C)s1 = YES
CC[C@]12C=CCN3CC[C@@]4(c5ccc(OC)cc5N(C)[C@H]4[C@@](O)(C(=O)OC)[C@@H]1OC(=O)CCCC[P+](c1ccccc1)(c1ccccc1)c1ccccc1)[C@@H]32 = NO
C/C(=N\NC(=O)c1cccc(S(=O)(=O)N2CCN(C)CC2)c1)c1cc(Cl)ccc1O = NO
COc1ccc(C(=O)OC2C(OC3C(O)COC(O[C@H]4C[C@H]5[C@@H]6CC=C7C[C@@H](O)CC[C@]7(C)[C@H]6CC[C@]5(C)[C@H]4[C@H](C)C(=O)CCC(C)C)C3OC(=O)C(C)C)OCC(O)C2O)cc1 (stereo partly drawn) = YES
CS(=O)(=O)c1nccc(-c2c(-c3cccc(OCc4ccccc4)c3)nc3sccn23)n1 = NO
N=C(N)c1ccc(CS(=O)(=O)F)cc1 = NO
COc1cc(/C=C/C(=O)c2ccc(F)cc2)ccc1OCCCCOc1cc2c(cc1OC)C(=O)N1CCCC1C=N2 (stereo not drawn) = NO

Would you kindly look at the next entry?
Check the results log: what was the call for `COc1ccc2c(c1)C(=O)c1c-2n(CCCCl)c(=O)c2cc([N+](=O)[O-])ccc12` ?
YES

* * *

Listed here: items and their measured TGI.
System: SNB-75 CNS
Experiment: NCI tumour cell line growth inhibition, 48 h

Examples with their reported TGI follow.
CCCCCCCCCCCCCCCCCc1cc(Cl)nc(Cl)n1 = > 100 µM
CCOC(=O)C1C(c2ccco2)C2(C#N)C(=N)OC1(C)C2(C#N)C#N (stereo not given) = > 100 µM
O=C(CC(C(=O)c1cccs1)c1ccsc1)c1ccc(Cl)cc1 (stereo not given) = > 100 µM
SCc1ccc(-c2ccc(CS)cc2)cc1 = 28.1 µM
C=C(C)[C@@H]1CC[C@]2(C(=O)N3CCN(C)CC3)CC[C@]3(C)[C@H](CC[C@@H]4[C@@]5(C)C/C(=C/c6ccncc6)[C@H](O)C(C)(C)[C@@H]5CC[C@]43C)[C@@H]12 = > 100 µM
Cc1cccc(-c2cccc(COCc3cccc(-c4cccc(CO)n4)n3)n2)n1 = > 50 µM

GET /values?readout=TGI&item= `CN1C(=O)C(C)(C)NS1(=O)=O`
> 100 µM

GET /values?readout=TGI&item= Nc1nc(Cl)cc(NCC2(CO)CC(CCCc3ccccc3)C2)n1 (stereo not given)
98.2 µM

GET /values?readout=TGI&item= `Cc1nnc(N2C(=O)C(=Cc3ccc(Cl)cc3)N=C2c2ccc(Cl)cc2)nc1/C=C\c1ccc(N(C)C)cc1`
> 100 µM

GET /values?readout=TGI&item= NC(CCCNc1ccc(O)cc1)C(=O)O (stereo not given)
> 100 µM

* * *

Test system: NCI-H23 lung
Assay: NCI tumour cell line growth inhibition, 48 h; in the data active = GI50 below about 0.43 µM; inactive = the rest
Form entry, call: pick from active, inactive

Use these answered entries as a reference point.
C[C@@]1([C@H](OC(=O)c2cccc3ccccc23)C(N)=O)CO1 = inactive
O=c1[nH]ccc2nc(N3CCC(O)CC3)nc(Nc3ccc(N4CCOCC4)cc3)c12 = inactive
Nc1nc2ccccc2c2[nH]c3ccccc3c12 = inactive

Check the results log: what was the call for `COc1ccc2c(c1)C(=O)c1c-2n(CCCCl)c(=O)c2cc([N+](=O)[O-])ccc12` ?
active

Check the results log: what was the call for `CN(C)c1ccc(/C=N/NC(=O)CSc2nc3sc4c(c3c(=O)n2-c2ccccc2)CCCCC4)cc1` ?
inactive

* * *

Tested on: K-562 leukemia
Assay: NCI tumour cell line growth inhibition, 48 h
Listed here: items and their measured TGI.

Examples with their reported TGI follow.
Cc1nc2ccc(F)cc2c2c1CCN2c1ccccc1 = 33.4 µM
COc1cccc([C@@H]2C/C(=N\NC(=O)C(=O)N[C@@H](C)c3ccccc3)c3cc4c(cc3N2)OCO4)c1 = > 100 µM
Cc1ccc([N+]2=NC(c3ccc([N+](=O)[O-])cc3)=NN(c3ccccc3)C2)cc1 = > 100 µM
CC[C@@]1(O)C(=O)OCc2c1cc1n(c2=O)Cc2cc3c([N+](=O)[O-])c(O)ccc3nc2-1 = > 100 µM
S=P(C1CCCCC1)(C1CCCCC1)C(c1cccnc1)N1CCCC1 (stereo not given) = 39.2 µM
CC[C@]1(Cc2ccc(OC)c(OC)c2)C=[N+]([O-])O[C@H](OC2CCCCC2c2ccccc2)[C@@H]1OC(C)=O (stereo not given in full) = > 100 µM
O=C1c2ccccc2-c2nc(-c3cccs3)cc3c2c1nc1ccccc13 = > 100 µM
CC(C)(C)n1nc(C2CC2)cc1NC(=O)Nc1ccc(Cl)cc1 = > 100 µM
COc1ccc2c(c1)CC[C@@H]1C2CC[C@]2(C)C(=N\O)/C(=N/O)CC12 (stereo not given in full) = 36 µM
COc1cc2c(NCCN(C)C)nc3c4cc5c(cc4ccc3c2cc1OC)OCO5 = 7.49 µM

GET /values?readout=TGI&item= CCCCCCCCCCCCCCCCC(=O)NCC(=O)NCC(=O)NC(Cc1ccccc1)C(=O)Oc1ccc([N+](=O)[O-])cc1 (stereo not given)
56.6 µM

GET /values?readout=TGI&item= `[O-]c1ccccc1[C-]=Nc1ccccc1O.[O-]c1ccccc1[C-]=Nc1ccccc1O.[O]=[U]=[O]`
> 100 µM

GET /values?readout=TGI&item= `COc1c(C(=O)/C(=N/Nc2cccc(Cl)c2)C(C)=O)c(O)c(OC)c2occc12`
> 100 µM

GET /values?readout=TGI&item= `CCOc1cc(/C=N\O)cc(/C=N/O)c1O`
> 100 µM

GET /values?readout=TGI&item= `COc1ccc(-c2cc(=O)c3c(OC)c(O)c(OC)cc3o2)cc1`
> 100 µM

GET /values?readout=TGI&item= CC(=O)N(CN1C(=O)CCC1C(=O)O)c1ccc(C)cc1 (stereo not given)
> 100 µM

GET /values?readout=TGI&item= `Cc1cc(N(CCC#N)CCC#N)ccc1/C=C(\NC(=O)/C=C/c1ccccc1)NC(=O)Nc1ccccc1C`
> 100 µM

GET /values?readout=TGI&item= `ClCCN(CC#CCCCC#CCN(CCCl)CCCl)CCCl`
37.7 µM

GET /values?readout=TGI&item= Cc1cc2nn(C3CCCCO3)nc2cc1C (stereo not given)
> 100 µM

GET /values?readout=TGI&item= N#Cc1c(N)n(C2OC(CO)C(O)C2O)c2ncnc(N)c12 (stereo not given)
> 20.2 µM

* * *

System: SW-620 colon
Test: NCI tumour cell line growth inhibition, 48 h
Listed here: items and their measured TGI.

Examples with their reported TGI follow.
CCCCCCCCCCCCCCCCOP(=O)(O)OP(=O)(O)OCC1OC(n2cnc3c(N)ncnc32)C(O)C1O (centres undefined) = > 100 µM
Cn1cc(S(=O)(=O)NC(=O)Nc2ccc(Cl)cc2)c(=O)c2ccc(Cl)cc21 = > 100 µM
COC1=CC(=O)c2c(O)c3c(c(O)c2C1=O)OC1(Oc2c(cc4cc(C)oc(=O)c4c2O)CC1O)C3O (centres undefined) = > 100 µM
Nc1c(C(=O)c2cccc(C(O)(CO)CO)c2)cnn1-c1ccc(F)cc1 = > 25 µM
CCCCCCCCCCCCCCCCCc1cc(Cl)nc(Cl)n1 = > 100 µM

GET /values?readout=TGI&item= Cn1c(=O)c2c(nc(N3CCOCC3)n2CCCNCC(O)c2ccc(O)c(O)c2)n(C)c1=O (centres undefined)
> 100 µM

GET /values?readout=TGI&item= `CN(C)c1ccc(/C=N/NC(=O)CSc2nc3sc4c(c3c(=O)n2-c2ccccc2)CCCCC4)cc1`
> 100 µM

GET /values?readout=TGI&item= `COc1ccccc1CN=C1NC(=O)/C(=C/c2ccc3ncccc3c2)S1`
> 25 µM

GET /values?readout=TGI&item= `O=C(/C=C/c1ccc[nH]1)c1ccccc1`
> 100 µM

GET /values?readout=TGI&item= `CS(=O)(=O)c1nccc(-c2c(-c3cccc(OCc4ccccc4)c3)nc3sccn23)n1`
> 100 µM

GET /values?readout=TGI&item= `CC[C@@]1(O)C(=O)OCc2c1cc1n(c2=O)Cc2cc3c([N+](=O)[O-])c(O)ccc3nc2-1`
33.8 µM

GET /values?readout=TGI&item= `O=C(O)\C=C/C=C/C=C/C=C/C(=O)O`
> 100 µM

GET /values?readout=TGI&item= `COc1c(C(=O)/C(=N/Nc2cccc(Cl)c2)C(C)=O)c(O)c(OC)c2occc12`
> 100 µM

GET /values?readout=TGI&item= `COc1ccc(NC(=O)COc2ccccc2)c(C(N)=O)c1`
> 100 µM

GET /values?readout=TGI&item= `Cc1ccc([N+]2=NC(c3ccc([N+](=O)[O-])cc3)=NN(c3ccccc3)C2)cc1`
> 100 µM

GET /values?readout=TGI&item= `COC(=O)c1ccc(CS(=O)(=O)c2ccccc2)cc1`
> 100 µM

GET /values?readout=TGI&item= `Cc1ccc(N/N=C/C2=CC(C)(C)C(C#N)(C#N)C(O)=C2C#N)cc1`
> 100 µM

GET /values?readout=TGI&item= `COc1ccc(/C=C/C(=O)c2c(-c3ccccc3)nn(C)c(=O)c2N2CCCC2)cc1`
> 100 µM

GET /values?readout=TGI&item= `CCOc1cc(/C=N\O)cc(/C=N/O)c1O`
> 100 µM

GET /values?readout=TGI&item= `CCOC(=O)NC(=O)c1cn(CC(=O)NCC(=O)NCC(=O)N2CCN(CCn3c(C)nc(C(N)=O)c3N)CC2)c(=O)[nH]c1=O`
> 100 µM

GET /values?readout=TGI&item= `COc1ccc(Nc2[nH]n(C3=Nc4ccccc4Sc4ccccc43)c(=O)c2C#N)cc1`
> 100 µM

GET /values?readout=TGI&item= CC(C)NC1CCCCC2c3cc(F)ccc3[C@]12O (some centres undefined)
> 100 µM

GET /values?readout=TGI&item= `COc1ccc(-c2cnc(SCC(=O)c3c(C)n(C)n(-c4ccccc4)c3=O)n2-c2ccc(OC)cc2)cc1`
> 50 µM

GET /values?readout=TGI&item= Nc1nc(Cl)cc(NCC2(CO)CC(CCCc3ccccc3)C2)n1 (centres undefined)
> 100 µM

From: PubChem BioAssay (NCI)
